Target: UniProtKB P29274
Assay: Inhibition of cAMP production in HEK cells
Format: cell-based
Details: IC50 (nM) (5 μM Adenosine as agonist, 2.0% HSA), HEK-293 cells with A2A receptor, 5 μM Adenosine as agonist, 2.0% HSA
Doc: threshold 80 nM (exclusive). Items with IC50 beneath it return 1; others return -1.

Use these answered entries as a reference point.
IN: Lab note: confirm whether the reported IC50 for this molecule is below 80 nM, equality not counting. molecule: "CNCCNC(=O)COc1cc(N2CCN(CCn3c(=O)sc4c3nc(N)n3nc(-c5ccco5)nc43)CC2)c(F)cc1F"
OUT: 1

IN: Lab note: confirm whether the reported IC50 for this molecule is below 80 nM, equality not counting. molecule: "Nc1nc2c(sc(=O)n2CCN2CCN(c3ccc(OCC(=O)O)cc3F)CC2)c2nc(-c3ccco3)nn12"
OUT: -1

IN: Lab note: confirm whether the reported IC50 for this molecule is below 80 nM, equality not counting. molecule: "NC(=O)COc1cc(N2CCN(CCn3c(=O)sc4c3nc(N)n3nc(-c5ccco5)nc43)CC2)c(F)cc1F"
OUT: 1

IN: Lab note: confirm whether the reported IC50 for this molecule is below 80 nM, equality not counting. molecule: Nc1nc2c(sc(=O)n2CCN2CCN(c3ccc(O[C@H]4CC[S@+]([O-])CC4)cc3F)CC2)c2nc(-c3ccco3)nn12 (single isomer, unassigned)
OUT: -1

Now consider a different molecule.
IN: Lab note: confirm whether the reported IC50 for this molecule is below 80 nM, equality not counting. molecule: "NCCNC(=O)COc1ccc(N2CCN(CCn3c(=O)sc4c3nc(N)n3nc(-c5ccco5)nc43)CC2)c(F)c1"
OUT: 1

###

Test: Concentration in brain and cerebrospinal fluid compared to plasma
Type: in vivo, mice
Conditions: female, Balb-c, mouse, brain, po, 10 mg/kg, mean of 3 mice, PO 10 mg/kg, 0.500 h; read-out: Brain Concentration (ng/g), Mean
Experimental: 7-9 weeks old female Balb-c mice (obtained from SLAC Laboratory Animal Co. Ltd., Shanghai, China or SIPPR-B&K Laboratory Animal Co. Ltd., Shanghai, China) were dosed orally at a dose of 10 mg/kg, as a 1.00 mg/mL suspension in 10% DMSO+10% solutol+80% water, adjusted to pH 3-4 (homogenous opaque suspension). Animals were fasted at least 12 hours prior to the administration. […]
Recorded Endpoint: concentration at 0.5 h

IN: Return the recorded concentration at 0.5 h value; entry: NC(=O)COc1cc(N2CCN(CCn3c(=O)sc4c3nc(N)n3nc(-c5ccco5)nc43)CC2)c(F)cc1F [Compound 4]
OUT: < 16 ng/g

###

Assay: Concentration in brain and cerebrospinal fluid compared to plasma
Format: in vivo, mice
Settings: female, Balb-c, mouse, CSF, po, 10 mg/kg, mean of 3 mice, PO 10 mg/kg, 0.500 h; read-out: CSF Concentration (ng/mL), Mean
Recorded Endpoint: concentration at 0.5 h

IN: Return the recorded concentration at 0.5 h value; entry: NC(=O)COc1cc(N2CCN(CCn3c(=O)sc4c3nc(N)n3nc(-c5ccco5)nc43)CC2)c(F)cc1F [Compound 4]
OUT: < 3 ng/mL

###

Target: A2A receptor (Homo sapiens)
Test: Inhibition of cAMP production in HEK cells
Assay type: cell-based
Conditions: IC50 (nM) (5 μM Adenosine as agonist, 2.0% HSA), HEK-293 cells with A2A receptor, 5 μM Adenosine as agonist, 2.0% HSA
Entries and their measured log10 IC50 follow.
Heads up, the numbers here are log10 of IC50 in nM units.

IN: Write down measured log10 IC50 (A2A receptor (Homo sapiens)) for this compound. "C[C@H](CN(C)C)NC(=O)c1ccc(N2CCN(CCn3c(=O)sc4c3nc(N)n3nc(-c5ccco5)nc43)CC2)c(F)c1"
OUT: 1.75

IN: Write down measured log10 IC50 (A2A receptor (Homo sapiens)) for this compound. "Cn1cnc(COc2cc(N3CCN(CCn4c(=O)sc5c4nc(N)n4nc(-c6ccco6)nc54)CC3)c(F)cc2F)n1"
OUT: 3.43

IN: Write down measured log10 IC50 (A2A receptor (Homo sapiens)) for this compound. "Nc1nc2c(sc(=O)n2CCN2CCN(c3cc(O[C@H]4CNC[C@@H]4F)c(F)cc3F)CC2)c2nc(-c3ccco3)nn12"
OUT: 2.59

IN: Write down measured log10 IC50 (A2A receptor (Homo sapiens)) for this compound. "Nc1nc2c(sc(=O)n2CCN2CCN(c3ccc(OCc4nc[nH]n4)cc3F)CC2)c2nc(-c3ccco3)nn12"
OUT: 2.67

IN: Write down measured log10 IC50 (A2A receptor (Homo sapiens)) for this compound. "Nc1nc2c(sc(=O)n2CCN2CCN(c3ccc(C(=O)NCCNCCO)cc3F)CC2)c2nc(-c3ccco3)nn12"
OUT: 2.09

IN: Write down measured log10 IC50 (A2A receptor (Homo sapiens)) for this compound. "C[S@+]([O-])CCNC(=O)c1cc(N2CCN(CCn3c(=O)sc4c3nc(N)n3nc(-c5ccco5)nc43)CC2)c(F)cc1F"
OUT: 1.57

New cases:
IN: Write down measured log10 IC50 (A2A receptor (Homo sapiens)) for this compound. "CC(C)(Oc1cc(N2CCN(CCn3c(=O)sc4c3nc(N)n3nc(-c5ccco5)nc43)CC2)c(F)cc1F)C(=O)O"
OUT: 3.03

###

Molecular target: A2A receptor (Homo sapiens, UniProt P29274)
Sequence (P29274 whole entry): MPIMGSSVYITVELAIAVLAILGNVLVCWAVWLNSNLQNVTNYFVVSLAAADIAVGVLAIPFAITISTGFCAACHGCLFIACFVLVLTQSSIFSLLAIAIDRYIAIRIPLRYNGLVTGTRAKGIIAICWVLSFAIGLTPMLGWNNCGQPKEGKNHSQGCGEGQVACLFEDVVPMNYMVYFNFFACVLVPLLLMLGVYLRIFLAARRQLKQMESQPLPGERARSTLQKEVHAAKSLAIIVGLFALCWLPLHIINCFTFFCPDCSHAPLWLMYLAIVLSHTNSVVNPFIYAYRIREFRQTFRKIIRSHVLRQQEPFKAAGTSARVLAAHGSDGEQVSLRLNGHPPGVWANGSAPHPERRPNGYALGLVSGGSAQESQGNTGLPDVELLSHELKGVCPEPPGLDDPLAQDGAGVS
Assay: Inhibition of cAMP production in HEK cells
Format: cell-based
Conditions: IC50 (nM) (3 nM NECA as agonist, 0.1% BSA), HEK-293 cells with A2A receptor, 3 nM NECA as agonist, 0.1% BSA
Recorded Endpoint: IC50 (nM)
All answers are understood in nM, so give the number only.

IN: Write down measured IC50 (A2A receptor (Homo sapiens, UniProt P29274)) for this compound. "CS(=O)(=O)CCOc1ccc(N2CCN(CCn3c(=O)sc4c3nc(N)n3nc(-c5ccco5)nc43)CC2)c(F)c1"
OUT: 0.6

IN: Write down measured IC50 (A2A receptor (Homo sapiens, UniProt P29274)) for this compound. "Nc1nc2c(sc(=O)n2CCN2CCN(c3cc(OC[C@@H](O)CO)c(F)cc3F)CC2)c2nc(-c3ccco3)nn12"
OUT: 0.5

IN: Write down measured IC50 (A2A receptor (Homo sapiens, UniProt P29274)) for this compound. CS(=N)(=O)c1ccc(N2CCN(CCn3c(=O)sc4c3nc(N)n3nc(-c5ccco5)nc43)CC2)c(F)c1 (centres unmarked)
OUT: 0.4

IN: Write down measured IC50 (A2A receptor (Homo sapiens, UniProt P29274)) for this compound. "Nc1nc2c(sc(=O)n2CCN2CCN(c3ccc(OCc4c[nH]nn4)cc3F)CC2)c2nc(-c3ccco3)nn12"
OUT: 0.6

New cases:
IN: Write down measured IC50 (A2A receptor (Homo sapiens, UniProt P29274)) for this compound. "Nc1nc2c(sc(=O)n2CCN2CCN(c3ccc(CCC(=O)O)cc3F)CC2)c2nc(-c3ccco3)nn12"
OUT: 0.7

IN: Write down measured IC50 (A2A receptor (Homo sapiens, UniProt P29274)) for this compound. Nc1nc2c(sc(=O)n2CCN2CCN(c3cc(OCC4COCCN4)c(F)cc3F)CC2)c2nc(-c3ccco3)nn12 (centres unmarked)
OUT: 5.7

IN: Write down measured IC50 (A2A receptor (Homo sapiens, UniProt P29274)) for this compound. "CN(CCNC(=O)c1ccc(N2CCN(CCn3c(=O)sc4c3nc(N)n3nc(-c5ccco5)nc43)CC2)c(F)c1)C1COC1"
OUT: 0.5

IN: Write down measured IC50 (A2A receptor (Homo sapiens, UniProt P29274)) for this compound. Nc1nc2c(sc(=O)n2CCN2CCN(c3cc(OCC4CNCCO4)c(F)cc3F)CC2)c2nc(-c3ccco3)nn12 (centres unmarked)
OUT: 0.6

###

Target: A2A receptor (Homo sapiens)
Assay: Inhibition of cAMP production in HEK cells
Type: cell-based
Details: IC50 (nM) (5 μM Adenosine as agonist, 2.0% HSA), HEK-293 cells with A2A receptor, 5 μM Adenosine as agonist, 2.0% HSA
Entries and their measured IC50 follow.
Note to self: number, then unit, no commentary.

IN: Return the recorded IC50 value; entry: "Nc1nc2c(sc(=O)n2CCN2CCN(c3ccc(OCCN4CCNCC4)cc3F)CC2)c2nc(-c3ccco3)nn12"
OUT: 112 nM

IN: Return the recorded IC50 value; entry: "Nc1nc2c(sc(=O)n2CCN2CCN(c3cc(OCC(=O)O)c(F)cc3F)CC2)c2nc(-c3ccco3)nn12"
OUT: 36 nM

###

Entries and their measured IC50 follow.
Target: A2A receptor (Homo sapiens)
Assay: Inhibition of cAMP production in HEK cells
Type: cell-based
Details: IC50 (nM) (3 nM NECA as agonist, 0.1% BSA), HEK-293 cells with A2A receptor, 3 nM NECA as agonist, 0.1% BSA

IN: Return the recorded IC50 value; entry: C[S@@+]([O-])c1ccc(N2CCN(CCn3c(=O)sc4c3nc(N)n3nc(-c5ccco5)nc43)CC2)c(F)c1 (single isomer, unassigned) [Compound 119]
OUT: 0.4 nM

New cases:
IN: Return the recorded IC50 value; entry: CC(C)(Oc1ccc(N2CCN(CCn3c(=O)sc4c3nc(N)n3nc(-c5ccco5)nc43)CC2)c(F)c1)C(=O)O [Compound 39]
OUT: 0.8 nM

IN: Return the recorded IC50 value; entry: CN(CC[S@@+](C)[O-])C(=O)c1cc(N2CCN(CCn3c(=O)sc4c3nc(N)n3nc(-c5ccco5)nc43)CC2)c(F)cc1F [Compound 116]
OUT: 1.2 nM

IN: Return the recorded IC50 value; entry: C[C@H](Oc1ccc(N2CCN(CCn3c(=O)sc4c3nc(N)n3nc(-c5ccco5)nc43)CC2)c(F)c1)C(=O)O (single isomer, unassigned) [Compound 38]
OUT: 0.3 nM

IN: Return the recorded IC50 value; entry: Nc1nc2c(sc(=O)n2CCN2CCN(c3ccc(OCCCC(=O)O)cc3F)CC2)c2nc(-c3ccco3)nn12 [Compound 41]
OUT: 0.8 nM

IN: Return the recorded IC50 value; entry: C[C@H](Oc1cc(N2CCN(CCn3c(=O)sc4c3nc(N)n3nc(-c5ccco5)nc43)CC2)c(F)cc1F)C(=O)O (single isomer, unassigned) [Compound 60]
OUT: 0.8 nM

IN: Return the recorded IC50 value; entry: CNCCN(C)C(=O)c1ccc(N2CCN(CCn3c(=O)sc4c3nc(N)n3nc(-c5ccco5)nc43)CC2)c(F)c1 [Compound 55]
OUT: 1 nM

IN: Return the recorded IC50 value; entry: CN(C)CCN(C)C(=O)c1cc(N2CCN(CCn3c(=O)sc4c3nc(N)n3nc(-c5ccco5)nc43)CC2)c(F)cc1F [Compound 64]
OUT: 0.6 nM

IN: Return the recorded IC50 value; entry: Nc1nc2c(sc(=O)n2CCN2CCN(c3ccc(O[C@@H]4CNC[C@@H]4F)cc3F)CC2)c2nc(-c3ccco3)nn12 [Compound 103]
OUT: 1.1 nM

IN: Return the recorded IC50 value; entry: C[S@@+]([O-])CCNC(=O)c1cc(N2CCN(CCn3c(=O)sc4c3nc(N)n3nc(-c5ccco5)nc43)CC2)c(F)cc1F [Compound 114]
OUT: 0.3 nM
